Entry source: PubChem BioAssay (EPA / NIEHS)

Read-out: Interleukin 2 (IL2), IL2 (gene 3558)
METHOD DESCRIPTION: BSK_BT_xIL2: BioMAP Diversity Plus: BT Assay for Interleukin 2 (IL2) Biomarker Activity (AID 2284245)
RUN PARAMETERS: primary human B cells with PBMC
Activity calls are given as the source filed them. The calls were made as follows: active = hit-call score of the fitted dose curve at least 0.9, where 1 is the maximum; inactive = score below 0.9.
Assign a class; possible classes are t for active, f for inactive

Please review the following examples before continuing.
COMPOUND	CLASS LABEL
C#C[C@]1(O)CC[C@H]2[C@@H]3CCc4cc(OC)ccc4[C@H]3CC[C@@]21C	f
Nc1ccc([N+](=O)[O-])cc1O	f
O=C(Cl)C(F)(F)C(F)(F)C(F)(F)C(F)(F)C(F)(F)C(F)(F)C(F)(F)C(F)(F)F	f
CCCCCCCCC(F)(F)C(F)(F)C(F)(F)C(F)(F)C(F)(F)C(F)(F)F	f
Cc1ccc(S(=O)(=O)OCC(F)(F)C(F)(F)C(F)(F)C(F)(F)C(F)(F)C(F)F)cc1	f
O=S(=O)(OCCOC(F)(F)F)C(F)(F)F	f
O=S(=O)(OCC(F)F)C(F)(F)F	f
C=CC(F)(F)C(F)(F)C(F)(F)C(F)(F)C(F)(F)C(F)(F)C(F)(F)C(F)(F)F	f

[ask] Test call, this compound: CC(CCl)OP(=O)(OC(C)CCl)OC(C)CCl (stereo not drawn)
[reply] f

[ask] Test call, this compound: C=CC(=O)OCC(F)(F)C(F)(F)C(F)(F)C(F)(F)C(F)(F)C(F)(F)C(F)(F)F
[reply] f

[ask] Test call, this compound: CCCCCCCOC(=O)c1ccccc1C(=O)OCCCCCCC
[reply] t

[ask] Test call, this compound: FC(F)(F)C(F)(F)C(F)(F)C(F)(F)C(F)(F)CCI
[reply] f

[ask] Test call, this compound: FC(F)(F)C(F)(F)C(F)(F)C(F)(F)C(F)(F)C(F)(F)CC1CO1 (stereo not drawn)
[reply] f
